// provenance: PubChem BioAssay (NCI)

test-method-notes: NCI Yeast Anticancer Drug Screen. Data for the mec2-1 strain (AID 157)
settings: S. cerevisiae mec2-1 strain, at 50.0 µM
The panel holds about 79,000 compounds, 15% with a hit somewhere; the sample as a whole holds those more often. Activity calls are given as the source filed them. Cut-off read from the data, not from the text of the source: active = growth inhibition above about 70%; inactive = the rest.
Please answer using one outcome listed in Y = active, N = inactive

Prompt line: Kindly provide the recorded test outcome for the following compound: O=CNNC(=O)Nc1ccc(Cl)cc1
Response line: N

Prompt line: Kindly provide the recorded test outcome for the following compound: CN(C)c1nc(N(C)C)oc(=[N+](C)C)n1
Response line: N

Prompt line: Kindly provide the recorded test outcome for the following compound: O=NN(CCCl)C(=O)Oc1cc(Cl)c(Cl)cc1Cl
Response line: Y
